FYI, the data here is from patent US7253187B2.

Molecular target: ERK2 (Homo sapiens, UniProt P28482)
Sequence (P28482 whole entry): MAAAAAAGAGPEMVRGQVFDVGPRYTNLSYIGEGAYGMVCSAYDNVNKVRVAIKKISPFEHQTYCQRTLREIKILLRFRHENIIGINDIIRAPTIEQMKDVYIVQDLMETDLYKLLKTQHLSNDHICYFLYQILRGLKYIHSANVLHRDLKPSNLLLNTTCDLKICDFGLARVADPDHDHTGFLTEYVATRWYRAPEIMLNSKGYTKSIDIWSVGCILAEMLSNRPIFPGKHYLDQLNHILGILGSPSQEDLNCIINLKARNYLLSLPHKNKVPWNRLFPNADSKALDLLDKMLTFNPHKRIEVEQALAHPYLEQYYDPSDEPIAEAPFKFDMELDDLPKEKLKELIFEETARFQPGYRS
Assay: ERK2 inhibition assay (spectrophotometric coupled-enzyme assay)
Assay type: biochemical
Settings: read-out: ERK2 Inhibitory Activity (Ki class D-F)
Listed below: Ki values for each entry.

{"Compound": "Cc1cnc(NCc2cccnc2)nc1-c1c[nH]c(C(=O)NC(CO)c2ccccc2)c1 (stereo not shown)", "Ki": "< 0.1 µM"}
{"Compound": "CCNc1ncc(C)c(-c2c[nH]c(C(=O)NC(C(C)=O)c3ccccc3)c2)n1 (stereo not shown)", "Ki": "> 1 µM"}
{"Compound": "Cc1cnc(NCCO)nc1-c1c[nH]c(C(=O)NC(CO)c2ccccc2)c1 (stereo not shown)", "Ki": "< 0.1 µM"}

Kindly review the next compound as well.
Note to self: Ki of COCc1cnc(Nc2ccccc2)nc1-c1c[nH]c(C(=O)NC(CO)c2ccccc2)c1 (stereo not shown) with ERK2 (Homo sapiens, UniProt P28482) was 0.1 to 1 µM
